test system: collagen induced arthritis (CIA) in DBA/1 mice; test: Collagen-induced mouse arthritis (CIA) model; type: in vivo; details: 10 mg/kg subcutaneous from day 30 of modeling; CIA DBA/1 mice
Where no end group is shown, it is not given here.
Metric: Left and right paw swelling
Remember to put the unit after the number in your answer.

Use the examples below as a reference point.
The measured Left and right paw swelling associated with mPEG-ALD5k-Arg-Gly-Ala-Asp-Arg-Ala-Gly-Gly-Gly-Gly-Arg-Gly-Asp ({mPEG‑ALD 5 kDa}-RGADRAGGGGRGD) [mPEG-ALD5k-HM-1] reads 0.72 ± 0.15 mm

The reported Left and right paw swelling of the substance mPEG-SC5k-Arg-Gly-Ala-Asp-Arg-Ala-Gly-Gly-Gly-Gly-Arg-Gly-Asp ({mPEG‑SC 5 kDa}-RGADRAGGGGRGD) [mPEG-SC5k-HM-1] was 0.79 ± 0.11 mm

// mPEG2-NHS5k-Arg-Gly-Ala-Asp-Arg-Ala-Gly-Gly-Gly-Gly-Arg-Gly-Asp ({mPEG2‑NHS 5 kDa}-RGADRAGGGGRGD) [mPEG2-NHS5k-HM-1] : Left and right paw swelling value = 0.76 ± 0.11 mm

// next entry
Reported Left and right paw swelling ( mPEG-bALD5k-Arg-Gly-Ala-Asp-Arg-Ala-Gly-Gly-Gly-Gly-Arg-Gly-Asp ({mPEG‑bALD 5 kDa}-RGADRAGGGGRGD) [mPEG-bALD5k-HM-1] ) = 0.74 ± 0.13 mm
